# testMethodNotes: Cytotoxicity against rat PC12 cells measured for 24 hrs by WST-assay
# Format: toxicity, cell-based, PC-12
measuredMetric: CC50 at 24 h

# compoundSmiles, CC50 at 24 h
measured = [
    ("O=C(Cc1cc(O)ccc1O)NCCc1ccc(O)c(O)c1", "> 150 µM"),
    ("O=C(N[C@H](CO)Cc1ccc(O)c(O)c1)c1cc(O)ccc1O", "> 150 µM"),
    ("O=C(N[C@H](CO)Cc1ccc(O)c(O)c1)c1ccccc1", "> 150 µM"),
    ("O=C(N[C@H](CO)Cc1ccc(O)c(O)c1)c1ccc(O)c(O)c1", "> 150 µM"),
    ("O=C(Cc1cc(O)c(O)c(O)c1)NCCc1ccc(O)c(O)c1", "80 µM"),
]

Incoming: Recorded CC50 at 24 h for O=C(N[C@H](CO)Cc1ccc(O)c(O)c1)c1cc(O)cc(O)c1 , please?
Outgoing: > 150 µM

Incoming: Consider the compound shown here: O=C(Cc1ccccc1)NCCc1ccc(O)c(O)c1 What is its recorded CC50 at 24 h?
Outgoing: > 150 µM

Incoming: Which value of CC50 at 24 h has been reported for O=C(N[C@H](CO)Cc1ccc(O)c(O)c1)c1cccc(O)c1O in the records?
Outgoing: > 150 µM

Incoming: Suppose we examine the compound COC(=O)[C@H](Cc1ccc(O)c(O)c1)NC(=O)c1cc(O)c(O)c(O)c1 ; what CC50 at 24 h value has been reported?
Outgoing: 150 µM

Incoming: # input compound: O=C(N[C@H](CO)Cc1ccc(O)c(O)c1)c1ccc(O)cc1 ; wanted: its CC50 at 24 h
Outgoing: > 150 µM

Incoming: Please look up its CC50 at 24 h: O=C(/C=C/c1ccccc1)NCCc1ccc(O)c(O)c1
Outgoing: > 150 µM

----------
# measuredOn: Amyloid-beta precursor protein (Homo sapiens)
# testMethodNotes: Inhibition of amyloid beta (unknown origin) aggregation at 1 uM incubated for 20 hrs by Tht-based fluorescence spectroscopy assay relative to control
measuredMetric: inhibition (%)
All answers are understood in %, so give the number only.

Some entries whose results are on file:
# compoundSmiles, unit, inhibition
records = [
    ("O=C(Cc1cc(O)ccc1O)NCCc1ccc(O)c(O)c1", "%", 19),
    ("O=C(Cc1cc(O)cc(O)c1)NCCc1ccc(O)c(O)c1", "%", 0),
    ("O=C(N[C@H](CO)Cc1ccc(O)c(O)c1)c1ccc(O)c(O)c1", "%", 35),
    ("O=C(N[C@H](CO)Cc1ccc(O)c(O)c1)c1cc(O)cc(O)c1", "%", 0),
    ("COC(=O)[C@H](Cc1ccc(O)c(O)c1)NC(=O)c1cc(O)c(O)c(O)c1", "%", 30),
]

Incoming: # query: inhibition | item O=C(/C=C/c1ccccc1)NCCc1ccc(O)c(O)c1 | system: Amyloid-beta precursor protein (Homo sapiens)
Outgoing: 40

Incoming: Can you look up inhibition on Amyloid-beta precursor protein (Homo sapiens) for O=C(N[C@H](CO)Cc1ccc(O)c(O)c1)c1cc(O)ccc1O ?
Outgoing: 28

Incoming: What reported inhibition corresponds to O=C(N[C@H](CO)Cc1ccc(O)c(O)c1)c1ccccc1 on Amyloid-beta precursor protein (Homo sapiens)?
Outgoing: 0

Incoming: Form entry - test system: Amyloid-beta precursor protein (Homo sapiens); read-out: inhibition; compound: O=C(Cc1ccc(O)c(O)c1)NCCc1ccc(O)c(O)c1
Outgoing: 29

Incoming: Recorded inhibition for O=C(N[C@H](CO)Cc1ccc(O)c(O)c1)c1cccc(O)c1O with Amyloid-beta precursor protein (Homo sapiens), please?
Outgoing: 0

Incoming: What reported inhibition corresponds to O=C(Cc1ccccc1)NCCc1ccc(O)c(O)c1 on Amyloid-beta precursor protein (Homo sapiens)?
Outgoing: 0

----------
Below is a list of entries, each paired with its recorded inhibition value.
# measuredOn: Amyloid-beta precursor protein (Homo sapiens)
# testMethodNotes: Inhibition of amyloid beta (unknown origin) aggregation at 10 uM incubated for 20 hrs by Tht-based fluorescence spectroscopy assay relative to control
Just the number please, in %, no unit attached.

Incoming: Fill in: inhibition of O=C(/C=C/c1ccc(O)c(O)c1)NCCc1ccc(O)c(O)c1 is ___
Outgoing: 100

Incoming: Recorded inhibition for O=C(Cc1ccc(O)c(O)c1)NCCc1ccc(O)c(O)c1 , please?
Outgoing: 92

Incoming: Give the measured inhibition of O=C(N[C@H](CO)Cc1ccc(O)c(O)c1)c1ccc(O)c(O)c1 .
Outgoing: 90

Incoming: What value of measured inhibition is listed for N[C@@H](Cc1ccc(O)c(O)c1)C(=O)O ?
Outgoing: 31

----------
inhibition by entry:
# measuredOn: Amyloid-beta precursor protein (Homo sapiens) (UniProt P05067)
# Sequence (P05067 whole entry): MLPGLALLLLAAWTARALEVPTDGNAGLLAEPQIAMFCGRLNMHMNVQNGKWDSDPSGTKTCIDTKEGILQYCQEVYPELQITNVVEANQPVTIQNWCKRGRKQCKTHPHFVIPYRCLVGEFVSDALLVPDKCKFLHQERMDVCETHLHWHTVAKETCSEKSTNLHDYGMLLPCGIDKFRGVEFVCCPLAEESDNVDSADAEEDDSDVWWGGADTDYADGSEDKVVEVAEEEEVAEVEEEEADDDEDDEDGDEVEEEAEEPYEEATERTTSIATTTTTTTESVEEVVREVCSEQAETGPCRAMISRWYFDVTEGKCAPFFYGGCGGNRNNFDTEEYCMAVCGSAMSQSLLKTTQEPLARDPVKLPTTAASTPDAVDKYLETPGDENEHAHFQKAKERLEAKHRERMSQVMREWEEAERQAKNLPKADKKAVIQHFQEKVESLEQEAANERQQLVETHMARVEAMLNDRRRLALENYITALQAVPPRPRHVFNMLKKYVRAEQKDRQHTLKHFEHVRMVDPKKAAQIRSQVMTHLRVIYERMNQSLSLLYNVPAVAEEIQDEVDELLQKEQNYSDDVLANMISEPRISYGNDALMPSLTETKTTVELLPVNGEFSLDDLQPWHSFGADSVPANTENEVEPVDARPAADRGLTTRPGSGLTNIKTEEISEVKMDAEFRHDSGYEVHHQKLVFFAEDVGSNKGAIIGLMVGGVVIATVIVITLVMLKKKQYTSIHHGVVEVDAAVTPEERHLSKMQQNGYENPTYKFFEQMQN
# testMethodNotes: Inhibition of amyloid beta (unknown origin) aggregation at 1 uM incubated for 20 hrs by Tht-based fluorescence spectroscopy assay relative to control
# unit: % | format: bare number

Study these solved cases before continuing.
# compound, inhibition [%]
records = [
    ("N[C@@H](Cc1ccc(O)c(O)c1)C(=O)O", 0),
    ("O=C(N[C@H](CO)Cc1ccc(O)c(O)c1)c1cc(O)c(O)c(O)c1", 16),
    ("O=C(/C=C/c1ccc(O)c(O)c1)NCCc1ccc(O)c(O)c1", 55),
    ("O=C(Cc1ccc(O)cc1)NCCc1ccc(O)c(O)c1", 18),
    ("O=C1C=C(c2ccc(O)c(O)c2)OC(c2cc(O)ccc2O)C1 (stereo not drawn)", 76),
    ("O=C(Cc1cccc(O)c1O)NCCc1ccc(O)c(O)c1", 0),
    ("O=C(Cc1cc(O)c(O)c(O)c1)NCCc1ccc(O)c(O)c1", 20),
]

Incoming: Form field: reported inhibition of O=C(N[C@H](CO)Cc1ccc(O)c(O)c1)c1ccc(O)cc1
Outgoing: 0

----------
# testMethodNotes: Aqueous solubility of compound by shake flask method
# Format: physicochemical
# conditionInfo: water
measuredMetric: solubility thermodynamic (µM)
Dear colleague, please return just the value in µM, with no unit written.

For orientation, consider the following solved cases.
# compound, solubility thermodynamic, µM
records = [
    ("O=C(Cc1ccc(O)cc1)NCCc1ccc(O)c(O)c1", 2000),
    ("O=C1C=C(c2ccc(O)c(O)c2)OC(c2cc(O)ccc2O)C1 (stereo not drawn)", 2340),
]

Next, consider the following compound.
Incoming: State the recorded solubility thermodynamic for this entry: O=C(N[C@H](CO)Cc1ccc(O)c(O)c1)c1cccc(O)c1O
Outgoing: 1300

----------
# measuredOn: Amyloid-beta precursor protein (Homo sapiens) (UniProt P05067)
# testMethodNotes: Inhibition of amyloid beta (unknown origin) aggregation at 10 uM incubated for 20 hrs by Tht-based fluorescence spectroscopy assay relative to control
measuredMetric: inhibition (%)
Report the figure in % without appending any unit label.

// solved cases for inhibition follow
# compoundSmiles, inhibition / %
measured = [
    ("O=C(Cc1cc(O)ccc1O)NCCc1ccc(O)c(O)c1", 80),
    ("O=C(Cc1ccccc1)NCCc1ccc(O)c(O)c1", 30),
]

Incoming: Param readout= inhibition; system= Amyloid-beta precursor protein (Homo sapiens) (UniProt P05067); entry= O=C(/C=C/c1ccccc1)NCCc1ccc(O)c(O)c1 ; returns value.
Outgoing: 92

Incoming: Enter reported inhibition observed with Amyloid-beta precursor protein (Homo sapiens) (UniProt P05067) for O=C(Cc1cc(O)c(O)c(O)c1)NCCc1ccc(O)c(O)c1
Outgoing: 90

Incoming: Item O=C(N[C@H](CO)Cc1ccc(O)c(O)c1)c1cc(O)c(O)c(O)c1 with Amyloid-beta precursor protein (Homo sapiens) (UniProt P05067) - inhibition?
Outgoing: 85

----------
# testMethodNotes: Aqueous solubility of compound by shake flask method
# Type: physicochemical
# conditionInfo: water
Recorded solubility thermodynamic for the following compounds
Value expressed in µM; do not type the unit.

# compoundSmiles, solubility thermodynamic, µM
records = [
    ("O=C(/C=C/c1ccc(O)c(O)c1)NCCc1ccc(O)c(O)c1", 1500),
    ("O=C(N[C@H](CO)Cc1ccc(O)c(O)c1)c1ccc(O)cc1", 1600),
]

Okay, next one:
Incoming: If you can, please state the reported solubility thermodynamic value of O=C(Cc1ccccc1)NCCc1ccc(O)c(O)c1 .
Outgoing: 1300

----------
# measuredOn: Amyloid-beta precursor protein (Homo sapiens) (UniProt P05067)
# testMethodNotes: Inhibition of amyloid beta (unknown origin) aggregation at 10 uM incubated for 20 hrs by Tht-based fluorescence spectroscopy assay relative to control
measuredMetric: inhibition (%)
Please reply with the bare figure in % and do not write the unit itself.

Some solved entries appear below for comparison.
# compoundSmiles, measuredOn, inhibition [%]
rows = [
    ("COC(=O)[C@H](Cc1ccc(O)c(O)c1)NC(=O)c1cc(O)c(O)c(O)c1", "Amyloid-beta precursor protein (Homo sapiens) (UniProt P05067)", 95),
    ("O=C(N[C@H](CO)Cc1ccc(O)c(O)c1)c1cc(O)cc(O)c1", "Amyloid-beta precursor protein (Homo sapiens) (UniProt P05067)", 22),
    ("O=C(/C=C/c1ccc(O)c(O)c1)N[C@@H](Cc1ccc(O)c(O)c1)C(=O)O", "Amyloid-beta precursor protein (Homo sapiens) (UniProt P05067)", 86),
    ("O=C(Cc1ccc(O)cc1)NCCc1ccc(O)c(O)c1", "Amyloid-beta precursor protein (Homo sapiens) (UniProt P05067)", 80),
    ("O=C(N[C@H](CO)Cc1ccc(O)c(O)c1)c1cccc(O)c1O", "Amyloid-beta precursor protein (Homo sapiens) (UniProt P05067)", 80),
]

Incoming: Quick one: inhibition of O=C(Cc1cc(O)cc(O)c1)NCCc1ccc(O)c(O)c1 ?
Outgoing: 25

Incoming: May I ask what inhibition has been recorded for O=C(Cc1cccc(O)c1O)NCCc1ccc(O)c(O)c1 ?
Outgoing: 70

Incoming: May I ask what inhibition has been recorded for O=C(N[C@H](CO)Cc1ccc(O)c(O)c1)c1ccc(O)cc1 ?
Outgoing: 20

Incoming: Return reported inhibition; argument: O=C(N[C@H](CO)Cc1ccc(O)c(O)c1)c1cc(O)ccc1O
Outgoing: 70

Incoming: GET /values?readout=inhibition&item= O=C(N[C@H](CO)Cc1ccc(O)c(O)c1)c1ccccc1
Outgoing: 70

These entries and their values trace back to ChEMBL document CHEMBL5550149.
